Reported melting point is given for each of the following molecules.

Illustrative cases are given below, each with its answer.
compoundString	readoutKind	recordedResult
CCc1nccn1-c1ccc(NC(=O)CCC(=O)Nc2ccc(C)cc2)cc1	melting point	200 to 202 °C
CCc1nccn1-c1ccc(NC(=O)CCC(=O)Nc2ccc(N)cc2)cc1	melting point	229 to 231 °C
CCc1nccn1-c1ccc(NC(=O)CCC(=O)NCc2ccc(C)cc2)cc1	melting point	164 to 166 °C
CCc1nccn1-c1ccc(NC(=O)CCC(=O)Nc2ccc(OC)cc2)cc1	melting point	160 to 163 °C

Consider the additional molecule presented here.
Request: Write down melting point measured for item CCc1nccn1-c1ccc(NC(=O)CCC(=O)NCc2ccccc2)cc1
Response: 123 to 126 °C
